Known Efficacy, DQ-gelatin digestion, MMP9 assay of a selection of binders
Molecular target: human MMP9 (i.e. activated MMP9), catalytically active caspase-cleaved recombinant MMP9 (human, UniProt P14780 107-707)
Sequence (P14780 107-707): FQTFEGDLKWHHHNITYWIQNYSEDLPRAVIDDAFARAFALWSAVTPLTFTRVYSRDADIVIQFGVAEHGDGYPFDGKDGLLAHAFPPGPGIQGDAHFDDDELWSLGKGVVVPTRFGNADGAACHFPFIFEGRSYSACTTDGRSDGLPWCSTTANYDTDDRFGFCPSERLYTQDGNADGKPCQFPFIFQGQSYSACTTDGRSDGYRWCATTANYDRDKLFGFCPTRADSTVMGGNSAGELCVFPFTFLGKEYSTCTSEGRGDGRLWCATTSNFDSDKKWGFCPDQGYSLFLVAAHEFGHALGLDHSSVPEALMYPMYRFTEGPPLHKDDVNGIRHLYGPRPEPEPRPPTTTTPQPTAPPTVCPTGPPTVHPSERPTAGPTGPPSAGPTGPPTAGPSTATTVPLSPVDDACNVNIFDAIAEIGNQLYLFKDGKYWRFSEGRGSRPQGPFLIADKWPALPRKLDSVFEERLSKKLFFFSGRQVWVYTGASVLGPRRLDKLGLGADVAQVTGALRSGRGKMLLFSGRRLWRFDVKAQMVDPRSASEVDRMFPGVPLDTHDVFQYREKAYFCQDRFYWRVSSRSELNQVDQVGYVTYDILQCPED
Test: cell-based or functional assay
Respond numerically; units are % and should not be typed.

Answered examples (2):
binder: F20-VH-GL1/B03-VL-GL1c (antibody, human IgG4, V domains shown) VH: EVQLVESGGGLVQPGRSLRLSCAASGFTFNDYPMHWVRQAPGKGLEWVSGISSNSGSVGYADSVKGRFTISRDNAKNSLYLQMNSLRAEDTALYYCARDKIYYGSGSYDFYYYYGMDVWGQGTTVTVSS VL: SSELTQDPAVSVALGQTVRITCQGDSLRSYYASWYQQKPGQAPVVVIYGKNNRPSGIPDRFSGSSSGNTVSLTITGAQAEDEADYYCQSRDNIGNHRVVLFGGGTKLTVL
measured result: 100
--
binder: F20-VH-GL1-V1-V9/B08-VL-GL6c (antibody, human IgG4 S228P, V domains shown) VH: EVQLVESGGGLVQPGRSLRLSCAASGFTFNDYPMHWVRQAPGKGLEWVSGISSQSGSVGYAESVKGRFTISRDNAKNSLYLQMNSLRAEDTALYYCARDKIYYGSGSYDFYYYYGMDVWGQGTTVTVSS VL: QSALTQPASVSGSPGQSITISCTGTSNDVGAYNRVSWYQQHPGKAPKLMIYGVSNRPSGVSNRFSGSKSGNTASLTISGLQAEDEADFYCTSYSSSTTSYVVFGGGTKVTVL
measured result: 100

Consider the additional binder presented here.
Task item: Dear colleague, I am looking for the recorded Efficacy, DQ-gelatin digestion, MMP9 assay of the following binder: F20-VH-GL1-V4-V9-V14/B03-VL-GL1c (antibody, human IgG4 S228P, V domains shown) VH: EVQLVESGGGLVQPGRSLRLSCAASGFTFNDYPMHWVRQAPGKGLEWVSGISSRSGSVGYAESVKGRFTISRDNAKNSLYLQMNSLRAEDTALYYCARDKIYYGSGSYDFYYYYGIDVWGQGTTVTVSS VL: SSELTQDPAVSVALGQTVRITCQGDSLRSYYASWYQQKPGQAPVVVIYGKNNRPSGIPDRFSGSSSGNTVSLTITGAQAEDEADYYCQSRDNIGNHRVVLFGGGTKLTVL
Reply: 100
